Value source: patent US4769377A

- SUBJECT OF TEST: adenosine A1 receptors (Bos taurus)
- ASSAY TEXT: inhibition of [^3 H]CHA binding to A1 adenosine receptors in bovine brain membranes
pIC50: −log10 of the molar value.
MEASURE: pIC50

>  <MOLECULE>
CCCn1c(=O)c2nc(-c3ccc(N)cc3N)[nH]c2n(CCC)c1=O

>  <SUBJECT OF TEST>
adenosine A1 receptors (Bos taurus)

>  <DATA VALUE>
9.70

$$$$

a. Cn1c(=O)c2c(ncn2CC(O)CO)n(C)c1=O (stereo not shown) [7-(2,3-dihydroxypropyl)T]
b. Cn1c(=O)c2[nH]c(-c3ccc(Cl)cc3N)nc2n(C)c1=O
c. Cn1c(=O)c2[nH]c(-c3ccc4ccccc4c3)nc2n(C)c1=O
Inquiry: hey, can you rank those molecules up there by pIC50? biggest number first please Your answer should be the labels, listed in the requested order.
Reply text: b, c, a
(b: 9.82, c: 8.30, a: 3.10)

----------
- SUBJECT OF TEST: UniProtKB P28190
- ASSAY TEXT: inhibition of [^3 H]CHA binding to A1 adenosine receptors in bovine brain membranes
pKi: −log10 of the molar value.
MEASURE: pKi

I. Cn1c(=O)c2[nH]c(-c3cccc(N)c3)nc2n(C)c1=O
II. Cn1c(=O)[nH]c2nc[nH]c2c1=O
III. CCCn1c(=O)c2[nH]c(-c3ccccc3)nc2n(CCC)c1=O
IV. Cn1c(=O)c2[nH]c(-c3cccc([N+](=O)[O-])c3)nc2n(C)c1=O
Inquiry: Please order the records by their reported pKi, lowest number first. Your answer should be the labels, listed in the requested order.
Reply text: II, IV, I, III
(II: 5.59, IV: 7.66, I: 8.24, III: 9.92)

----------
- SUBJECT OF TEST: adenosine A1 receptors (Bos taurus, UniProt P28190)
MEASURE: pKi
Please report pKi as the negative decimal logarithm of the molar concentration, giving only the number.

Inquiry: For the record CCCn1c(=O)c2[nH]c(-c3ccc(Cl)cc3N)nc2n(CCC)c1=O , what value of pKi is listed for adenosine A1 receptors (Bos taurus, UniProt P28190)?
Reply text: 10.66

----------
- ASSAY TEXT: Solubility of 8-phenylxanthines
- Type: physicochemical
- TEST SETTINGS: water; read-out: soluble in water at
MEASURE: solubility (µM)
Your answer should be a plain number; it is taken to be in µM.

Inquiry: Please report the recorded solubility for CCn1c(=O)c2[nH]c(-c3ccccc3)nc2n(CC)c1=O .
Reply text: 3

----------
- ASSAY TEXT: Solubility of 8-phenylxanthines
- Assay type: physicochemical
- TEST SETTINGS: dmf, organic solvent or mixture; read-out: soluble in DMF at
MEASURE: solubility (mM)
Your answer should be a plain number; it is taken to be in mM.

Inquiry: Please report the recorded solubility for CCCn1c(=O)c2[nH]c(-c3ccc(Cl)cc3N)nc2n(CCC)c1=O .
Reply text: 30

----------
- SUBJECT OF TEST: adenosine A1 receptors (Bos taurus, UniProt P28190)
- ASSAY TEXT: inhibition of [^3 H]CHA binding to A1 adenosine receptors in bovine brain membranes
MEASURE: IC50 (nM)

>  <COMPOUND>
COc1ccc(-c2nc3c([nH]2)c(=O)n(C)c(=O)n3C)cc1OC [8-(3,4-dimethoxyphenyl)T]

>  <SUBJECT OF TEST>
adenosine A1 receptors (Bos taurus, UniProt P28190)

>  <IC50 / nM>
20

$$$$

P. CCCn1c(=O)c2nc[nH]c2n(CCC)c1=O [B80, 1,3-dipropylxanthine]
Q. CCCn1c(=O)n(CC)c(=O)c2scnc21 [1-ethyl-3-propyl-7-thiaxanthine]
Inquiry: Hi there, can you help? I need to know whether P or Q has lower measured IC50. Could you answer with the label of the item you picked?
Reply text: P
(P: 200 nM, Q: 8000 nM)

----------
- SUBJECT OF TEST: adenosine A1 receptors (Bos taurus, UniProt P28190)
- ASSAY TEXT: inhibition of [^3 H]CHA binding to A1 adenosine receptors in bovine brain membranes;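 note: Filter-bound radioactivity read by liquid scintillation counting, with dose-inhibition curves built from 4–8 test concentrations, each run in triplicate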
MEASURE: Ki (nM)

Use the examples below as a reference point.
>  <MOLECULE>
CCCn1c(=O)c2nc[nH]c2n(CCC)c1=O

>  <SUBJECT OF TEST>
adenosine A1 receptors (Bos taurus, UniProt P28190)

>  <Ki / nM>
100

$$$$
>  <MOLECULE>
Cn1c(=O)c2[nH]c(-c3ccccc3O)nc2n(C)c1=O [8-(o-hydroxyphenyl)T]

>  <SUBJECT OF TEST>
adenosine A1 receptors (Bos taurus, UniProt P28190)

>  <Ki / nM>
4.8

$$$$

P. Cn1c(=O)c2[nH]c(-c3ccc(O)cc3)nc2n(C)c1=O [8-(p-hydroxyphenyl)T]
Q. CCn1c(=O)c2nc[nH]c2n(CC)c1=O
Inquiry: Hi there, can you help? I need to know whether P or Q has lower measured Ki. Could you answer with the label of the item you picked?
Reply text: P

----------
- SUBJECT OF TEST: adenosine A1 receptors (Bos taurus, UniProt P28190)
- Sequence (P28190 1-326): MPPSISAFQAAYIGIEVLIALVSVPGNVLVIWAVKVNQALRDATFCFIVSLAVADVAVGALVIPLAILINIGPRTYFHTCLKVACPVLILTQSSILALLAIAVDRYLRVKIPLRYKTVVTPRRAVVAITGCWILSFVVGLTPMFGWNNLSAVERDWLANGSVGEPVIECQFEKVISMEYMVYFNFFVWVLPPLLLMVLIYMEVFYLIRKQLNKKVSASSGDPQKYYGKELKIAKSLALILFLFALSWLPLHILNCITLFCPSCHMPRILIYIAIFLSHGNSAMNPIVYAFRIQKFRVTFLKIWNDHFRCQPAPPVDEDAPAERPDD
- ASSAY TEXT: inhibition of [^3 H]CHA binding to A1 adenosine receptors in bovine brain membranes
MEASURE: IC50 (nM)

Use the examples below as a reference point.
>  <COMPOUND>
Cn1c(=O)c2[nH]c(-c3ccc(Br)o3)nc2n(C)c1=O [8-(5-bromo-2-furyl)T]

>  <SUBJECT OF TEST>
adenosine A1 receptors (Bos taurus, UniProt P28190)

>  <IC50 / nM>
50

$$$$
>  <COMPOUND>
C=CCn1c(=O)c2nc[nH]c2n(CC=C)c1=O [1,3-diallylX]

>  <SUBJECT OF TEST>
adenosine A1 receptors (Bos taurus, UniProt P28190)

>  <IC50 / nM>
4000

$$$$
>  <COMPOUND>
Cn1c(=O)c2[nH]c(C3CCCC3)nc2n(C)c1=O [8-cyclopentylT]

>  <SUBJECT OF TEST>
adenosine A1 receptors (Bos taurus, UniProt P28190)

>  <IC50 / nM>
2

$$$$

1. Cn1cccc1-c1nc2c([nH]1)c(=O)n(C)c(=O)n2C [8-(N--methyl-2-pyrrolyl)T]
2. Cn1c(=O)[nH]c2ncn(C)c2c1=O [1,7-dimethylX]
3. Cn1c(=O)c2c(ncn2CCO)n(C)c1=O [7-(2-hydroxyethyl)T]
4. Cn1c(=O)c2[nH]c(-c3ccccn3)nc2n(C)c1=O [8-(2-pyridyl)T]
5. Cn1c(=O)[nH]c2nc[nH]c2c1=O [1-methylX]
Inquiry: Give the ascending ranking of the items by reported IC50. Your answer should be the labels, listed in the requested order.
Reply text: 1, 4, 5, 2, 3

----------
- SUBJECT OF TEST: UniProtKB P28190
- ASSAY TEXT: inhibition of [^3 H]CHA binding to A1 adenosine receptors in bovine brain membranes
- TEST SETTINGS: Table II; vs [^3 H-CHA] in bovine brain
MEASURE: IC50 (nM)

P. Cn1c(=O)c2[nH]c(-c3cccc4ccccc34)nc2n(C)c1=O
Q. Cn1c(=O)c2[nH]c(-c3ccc(F)cc3)nc2n(C)c1=O
Inquiry: Of P and Q , whose reported IC50 is the larger number? Could you answer with the label of the item you picked?
Reply text: P
(P: 80 nM, Q: 3.5 nM)

1. Cn1c(=O)c2[nH]c(-c3ccc(-c4ccccc4)cc3)nc2n(C)c1=O
2. Cn1c(=O)c2[nH]c(-c3ccc(Cl)c(Cl)c3)nc2n(C)c1=O
Inquiry: Of 1 and 2 , whose reported IC50 is the larger number? Could you answer with the label of the item you picked?
Reply text: 2

----------
- SUBJECT OF TEST: adenosine A1 receptors (Bos taurus)
- Sequence (P28190 1-326): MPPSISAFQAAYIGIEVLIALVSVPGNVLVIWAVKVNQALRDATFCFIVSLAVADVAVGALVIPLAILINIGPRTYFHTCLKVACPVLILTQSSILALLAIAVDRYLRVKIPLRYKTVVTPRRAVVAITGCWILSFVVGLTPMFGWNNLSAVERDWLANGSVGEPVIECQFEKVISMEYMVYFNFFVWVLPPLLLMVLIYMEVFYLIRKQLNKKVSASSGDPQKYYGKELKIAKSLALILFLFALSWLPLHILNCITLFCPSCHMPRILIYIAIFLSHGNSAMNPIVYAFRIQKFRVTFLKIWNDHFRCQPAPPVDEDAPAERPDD
- ASSAY TEXT: inhibition of [^3 H]CHA binding to A1 adenosine receptors in bovine brain membranes
pIC50: −log10 of the molar value.
MEASURE: pIC50

>  <SMILES TEXT>
O=c1[nH]c(=O)c2[nH]cnc2[nH]1

>  <DATA VALUE>
3.70

$$$$
>  <SMILES TEXT>
Cn1c(=O)c2[nH]c(-c3ccco3)nc2n(C)c1=O

>  <DATA VALUE>
7.74

$$$$
>  <SMILES TEXT>
Cn1c(=O)c2c(ncn2C)n(C)c1=O

>  <DATA VALUE>
4.70

$$$$
>  <SMILES TEXT>
CCn1c(=O)c2nc[nH]c2n(CC)c1=O

>  <DATA VALUE>
5.52

$$$$
>  <SMILES TEXT>
CCCn1c(=O)c2[nH]c(-c3ccccc3)nc2n(CCC)c1=O

>  <DATA VALUE>
9.52

$$$$

1. Cn1c(=O)c2[nH]c(-c3c[nH]c4ccccc34)nc2n(C)c1=O
2. Cn1c(=O)c2[nH]c(-c3ccc(N)cc3)nc2n(C)c1=O
Inquiry: Of 1 and 2 , whose reported pIC50 is the larger number? Could you answer with the label of the item you picked?
Reply text: 2
